Each recorded value in this set is attributed to patent US9284303B2.

Each item that follows carries a reported EC50.
- TESTED_ON: human CB2 (hCB2) receptor (Homo sapiens, UniProt P34972)
- Construct: expressed in transfected cells; host or cells: CHO-K1
- Sequence (P34972 whole entry): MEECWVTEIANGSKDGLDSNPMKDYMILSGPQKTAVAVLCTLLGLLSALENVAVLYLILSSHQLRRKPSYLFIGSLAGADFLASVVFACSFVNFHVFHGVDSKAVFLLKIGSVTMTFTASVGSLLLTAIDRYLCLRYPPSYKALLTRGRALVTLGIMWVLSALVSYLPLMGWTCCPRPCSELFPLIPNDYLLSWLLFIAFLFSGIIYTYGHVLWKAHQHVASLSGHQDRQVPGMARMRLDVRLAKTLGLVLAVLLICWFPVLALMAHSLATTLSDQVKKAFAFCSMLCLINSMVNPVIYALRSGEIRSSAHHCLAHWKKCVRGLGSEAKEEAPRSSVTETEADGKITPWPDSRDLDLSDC
- EXPERIMENT: Inhibition of forskolin-activated cAMP production upon activation of hCB2 (HTRF), CHO-K1 cells
- Assay type: cell-based
- ASSAY_SETUP: hCB2-CHO-K1 cells, forskolin-activated cAMP, pEC50=-log(EC50); read-out: CB2 pEC50 (converted)
Enter your answer as a number in nM; do not include the unit.

Some entries whose results are on file:
CCCC(C)Cn1c(C(C)(C)C)nc2cc(S(=O)(=O)c3ccnc(F)c3)ccc21 (centres unmarked) [Co. No. 148] ... 0.257
CC(C)(C)c1nc2cc(S(=O)(=O)c3ccnc(F)c3)ccc2n1C[C@H]1CC[C@H](O)CC1 [Co. No. 146] ... 2.51
COc1ncc(S(=O)(=O)c2ccc3c(c2)nc(C(C)(C)C)n3CC2CCOCC2)cn1 [Co. No. 111] ... 1.15
COc1ccc(S(=O)(=O)c2ccc3c(c2)nc(C(C)(C)C)n3CC2CCOCC2)cn1 [Co. No. 52] ... 0.692
CC(C)(C)c1nc2cc([S+]([O-])c3ccc(Cl)nn3)ccc2n1CC1CCOCC1 (centres unmarked) [Co. No. 31] ... 1.2

Please report the recorded EC50 for CC(C)(C)c1nc2cc(S(=O)(=O)c3cccc(C#N)n3)ccc2n1CC1CCOCC1 [Co. No. 98] .
0.955

Can you share its EC50? I mean this molecule: COc1c[n+]([O-])ccc1S(=O)(=O)c1ccc2c(c1)nc(C(C)(C)C)n2CC1CCOCC1 [Co. No. 115]
3.72

Recorded EC50 of CC(C)(C)c1nc2cc(S(=O)(=O)c3ccnc(F)c3)ccc2n1CCN1CCCC1 [Co. No. 144] , please.
3.24
